These measurements were taken from paper PMC5843811.

- TEST PROTOCOL: Biodistribution in AR42J tumor-bearing mice
- ASSAY SETUP: female, CD-1 nude (athymic nude), mouse, brain, iv, total radioactivity, Biodistribution, i.v. ~5 MBq (~1 nmol), 30 min p.i., mean ± SD, n=3
MEASURED METRIC: tissue uptake at 0.5 h
Answers without a unit are incomplete; give the number and then its unit.

So what does the record say about tissue uptake at 0.5 h for C[C@@H](O)[C@@H]1NC(=O)[C@H](CCCCN)NC(=O)[C@@H](Cc2c[nH]c3ccccc23)NC(=O)[C@H](Cc2cccc3ccccc23)NC(=O)[C@@H](NC(=O)[C@@H](Cc2ccccc2)NC(=O)CCC(C(=O)O)N2CCN(CC(=O)O)CCN(CC(=O)O)CC2)CSSC[C@@H](C(=O)N[C@H](CO)[C@@H](C)O)NC1=O (stereo partly shown) [^44Sc-NODAGA-NOC, metal not drawn] ? 0.09 %ID/g

====

- TEST PROTOCOL: Biodistribution in U87MG tumor-bearing mice
- Type: in vivo
- ASSAY SETUP: female, CD-1 nude (athymic nude), mouse, U87MG tumor / blood, iv, total radioactivity, i.v. ~5 MBq (~1 nmol), 2 h p.i., mean ± SD, n=3, read-out: Tumor-to-blood ratio
MEASURED METRIC: tissue to tissue ratio at 2 h
Please reply with the value in numeric form only.

So what does the record say about tissue to tissue ratio at 2 h for N=C(N)NCCC[C@@H]1NC(=O)[C@H](CCCCNC(=O)CN2CCN(CC(=O)O)CCN(CC(=O)O)CCN(CC(=O)O)CC2)NC(=O)[C@@H](Cc2ccccc2)NC(=O)[C@H](CC(=O)O)NC(=O)CNC1=O [^44Sc-DOTA-RGD, metal not drawn] ? 40.1

====

- TEST PROTOCOL: Biodistribution in AR42J tumor-bearing mice
- ASSAY SETUP: female, CD-1 nude (athymic nude), mouse, kidneys, iv, total radioactivity, Biodistribution, i.v. ~5 MBq (~1 nmol), 2 h p.i., mean ± SD, n=3
MEASURED METRIC: tissue uptake at 2 h
Answers without a unit are incomplete; give the number and then its unit.

So what does the record say about tissue uptake at 2 h for C[C@@H](O)[C@@H]1NC(=O)[C@H](CCCCN)NC(=O)[C@@H](Cc2c[nH]c3ccccc23)NC(=O)[C@H](Cc2cccc3ccccc23)NC(=O)[C@@H](NC(=O)[C@@H](Cc2ccccc2)NC(=O)CCC(C(=O)O)N2CCN(CC(=O)O)CCN(CC(=O)O)CC2)CSSC[C@@H](C(=O)N[C@H](CO)[C@@H](C)O)NC1=O (stereo partly shown) [^44Sc-NODAGA-NOC, metal not drawn] ? 8.64 %ID/g

====

- TEST PROTOCOL: Biodistribution in AR42J tumor-bearing mice
- ASSAY SETUP: female, CD-1 nude (athymic nude), mouse, blood, iv, total radioactivity, Biodistribution, i.v. ~5 MBq (~1 nmol), 30 min p.i., mean ± SD, n=3
MEASURED METRIC: tissue uptake at 0.5 h
Answers without a unit are incomplete; give the number and then its unit.

So what does the record say about tissue uptake at 0.5 h for C[C@@H](O)[C@@H]1NC(=O)[C@H](CCCCN)NC(=O)[C@@H](Cc2c[nH]c3ccccc23)NC(=O)[C@H](Cc2cccc3ccccc23)NC(=O)[C@@H](NC(=O)[C@@H](Cc2ccccc2)NC(=O)CCC(C(=O)O)N2CCN(CC(=O)O)CCN(CC(=O)O)CC2)CSSC[C@@H](C(=O)N[C@H](CO)[C@@H](C)O)NC1=O (stereo partly shown) [^44Sc-NODAGA-NOC, metal not drawn] ? 1.89 %ID/g

====

- TEST PROTOCOL: Biodistribution in AR42J tumor-bearing mice
- ASSAY SETUP: female, CD-1 nude (athymic nude), mouse, spleen, iv, total radioactivity, Biodistribution, i.v. ~5 MBq (~1 nmol), 2 h p.i., mean ± SD, n=3
MEASURED METRIC: tissue uptake at 2 h (%ID/g)
Field format: number, assumed %ID/g, no unit text.

So what does the record say about tissue uptake at 2 h for C[C@@H](O)[C@@H]1NC(=O)[C@H](CCCCN)NC(=O)[C@@H](Cc2c[nH]c3ccccc23)NC(=O)[C@H](Cc2cccc3ccccc23)NC(=O)[C@@H](NC(=O)[C@@H](Cc2ccccc2)NC(=O)CCC(C(=O)O)N2CCN(CC(=O)O)CCN(CC(=O)O)CC2)CSSC[C@@H](C(=O)N[C@H](CO)[C@@H](C)O)NC1=O (stereo partly shown) [^44Sc-NODAGA-NOC, metal not drawn] ? 0.38

====

- TEST PROTOCOL: Biodistribution in U87MG tumor-bearing mice
- Assay type: in vivo
- ASSAY SETUP: female, CD-1 nude (athymic nude), mouse, U87MG tumor / liver, iv, total radioactivity, i.v. ~5 MBq (~1 nmol), 5 h p.i., mean ± SD, n=3, read-out: Tumor-to-liver ratio
MEASURED METRIC: tissue to tissue ratio at 5 h
Please reply with the value in numeric form only.

So what does the record say about tissue to tissue ratio at 5 h for N=C(N)NCCC[C@@H]1NC(=O)[C@H](CCCCNC(=O)CCC(C(=O)O)N2CCN(CC(=O)O)CCN(CC(=O)O)CC2)NC(=O)[C@@H](Cc2ccc(O)cc2)NC(=O)[C@H](CC(=O)O)NC(=O)CNC1=O (some centres unmarked) [^44Sc-NODAGA-RGD, metal not drawn] ? 2.82

So what does the record say about tissue to tissue ratio at 5 h for N=C(N)NCCC[C@@H]1NC(=O)[C@H](CCCCNC(=O)CN2CCN(CC(=O)O)CCN(CC(=O)O)CCN(CC(=O)O)CC2)NC(=O)[C@@H](Cc2ccccc2)NC(=O)[C@H](CC(=O)O)NC(=O)CNC1=O [^44Sc-DOTA-RGD, metal not drawn] ? 2.9

====

- TEST PROTOCOL: Biodistribution in U87MG tumor-bearing mice
- Type: in vivo
- ASSAY SETUP: female, CD-1 nude (athymic nude), mouse, lung, iv, 5 MBq per mouse, total radioactivity, i.v. ~5 MBq (~1 nmol), 2 h p.i., mean ± SD, n=3, read-out: Biodistribution, Lung
MEASURED METRIC: tissue uptake at 2 h (%ID/g)
Field format: number, assumed %ID/g, no unit text.

So what does the record say about tissue uptake at 2 h for N=C(N)NCCC[C@@H]1NC(=O)[C@H](CCCCNC(=O)CN2CCN(CC(=O)O)CCN(CC(=O)O)CCN(CC(=O)O)CC2)NC(=O)[C@@H](Cc2ccccc2)NC(=O)[C@H](CC(=O)O)NC(=O)CNC1=O [^44Sc-DOTA-RGD, metal not drawn] ? 0.72

====

- TEST PROTOCOL: in vivo
- ASSAY SETUP: female, CD-1 nude (athymic nude), mouse, iv, 5 MBq per mouse, total radioactivity, Biodistribution, Pancreas
MEASURED METRIC: tissue uptake at 0.5 h
Answers without a unit are incomplete; give the number and then its unit.

So what does the record say about tissue uptake at 0.5 h for C[C@@H](O)[C@@H]1NC(=O)[C@H](CCCCN)NC(=O)[C@@H](Cc2c[nH]c3ccccc23)NC(=O)[C@H](Cc2cccc3ccccc23)NC(=O)[C@@H](NC(=O)[C@@H](Cc2ccccc2)NC(=O)CN2CCN(CC(=O)O)CCN(CC(=O)O)CCN(CC(=O)O)CC2)CSSC[C@@H](C(=O)N[C@H](CO)[C@@H](C)O)NC1=O [^44Sc-DOTA-NOC, metal not drawn] ? 1.29 %ID/g

====

Provide the recorded tissue uptake at 0.5 h for the entries that follow.
- TEST PROTOCOL: Biodistribution in U87MG tumor-bearing mice
- Type: in vivo
- ASSAY SETUP: female, CD-1 nude (athymic nude), mouse, skin, iv, 5 MBq per mouse, total radioactivity, i.v. ~5 MBq (~1 nmol), 30 min p.i., mean ± SD, n=3, read-out: Biodistribution, Skin
Field format: number, assumed %ID/g, no unit text.

So what does the record say about tissue uptake at 0.5 h for N=C(N)NCCC[C@@H]1NC(=O)[C@H](CCCCNC(=O)CN2CCN(CC(=O)O)CCN(CC(=O)O)CCN(CC(=O)O)CC2)NC(=O)[C@@H](Cc2ccccc2)NC(=O)[C@H](CC(=O)O)NC(=O)CNC1=O [^44Sc-DOTA-RGD, metal not drawn] ? 2.28

So what does the record say about tissue uptake at 0.5 h for N=C(N)NCCC[C@@H]1NC(=O)[C@H](CCCCNC(=O)CCC(C(=O)O)N2CCN(CC(=O)O)CCN(CC(=O)O)CC2)NC(=O)[C@@H](Cc2ccc(O)cc2)NC(=O)[C@H](CC(=O)O)NC(=O)CNC1=O (some centres unmarked) [^44Sc-NODAGA-RGD, metal not drawn] ? 1.97

====

- TEST PROTOCOL: Biodistribution in AR42J tumor-bearing mice
- ASSAY SETUP: female, CD-1 nude (athymic nude), mouse, AR42J tumor / kidneys, iv, total radioactivity, Tumor-to-kidney ratio, i.v. ~5 MBq (~1 nmol), 30 min p.i., mean ± SD, n=3
MEASURED METRIC: tissue to tissue ratio at 0.5 h
Please reply with the value in numeric form only.

So what does the record say about tissue to tissue ratio at 0.5 h for C[C@@H](O)[C@@H]1NC(=O)[C@H](CCCCN)NC(=O)[C@@H](Cc2c[nH]c3ccccc23)NC(=O)[C@H](Cc2cccc3ccccc23)NC(=O)[C@@H](NC(=O)[C@@H](Cc2ccccc2)NC(=O)CCC(C(=O)O)N2CCN(CC(=O)O)CCN(CC(=O)O)CC2)CSSC[C@@H](C(=O)N[C@H](CO)[C@@H](C)O)NC1=O (stereo partly shown) [^44Sc-NODAGA-NOC, metal not drawn] ? 0.8
